- PROTOCOL: AUClast in CD-1 (ICR) mouse at 1 mg/kg, iv
- Type: ADME, organism-based, Plasma
- Set-up: time 0 - last, dose 1 mg/kg, route intravenous
- EXPERIMENTAL_CONDITIONS: CD-1 (ICR), plasma
REPORTED_PROPERTY: AUC(0-t) (ng·h/mL)

SMILES_NOTATION: NC(=O)c1c(N)n(-c2cccc(C(=O)Nc3cccc(C(F)(F)F)c3)c2)c2nc3ccccc3nc12
REPORTED_PROPERTY: AUC(0-t)
RESULT_UNIT: ng·h/mL
OBSERVED: 533
//
SMILES_NOTATION: NC(=O)c1c(N)n(-c2cccc(NC(=O)c3cccc(C(F)(F)F)c3)c2)c2nc3ccccc3nc12
REPORTED_PROPERTY: AUC(0-t)
RESULT_UNIT: ng·h/mL
OBSERVED: 506
